Parameter Lipophilic Ligand Efficiency (LLE): see the listing below.
Molecular target: androgen receptor (AR) (Homo sapiens, UniProt P10275)
Sequence (P10275 whole entry): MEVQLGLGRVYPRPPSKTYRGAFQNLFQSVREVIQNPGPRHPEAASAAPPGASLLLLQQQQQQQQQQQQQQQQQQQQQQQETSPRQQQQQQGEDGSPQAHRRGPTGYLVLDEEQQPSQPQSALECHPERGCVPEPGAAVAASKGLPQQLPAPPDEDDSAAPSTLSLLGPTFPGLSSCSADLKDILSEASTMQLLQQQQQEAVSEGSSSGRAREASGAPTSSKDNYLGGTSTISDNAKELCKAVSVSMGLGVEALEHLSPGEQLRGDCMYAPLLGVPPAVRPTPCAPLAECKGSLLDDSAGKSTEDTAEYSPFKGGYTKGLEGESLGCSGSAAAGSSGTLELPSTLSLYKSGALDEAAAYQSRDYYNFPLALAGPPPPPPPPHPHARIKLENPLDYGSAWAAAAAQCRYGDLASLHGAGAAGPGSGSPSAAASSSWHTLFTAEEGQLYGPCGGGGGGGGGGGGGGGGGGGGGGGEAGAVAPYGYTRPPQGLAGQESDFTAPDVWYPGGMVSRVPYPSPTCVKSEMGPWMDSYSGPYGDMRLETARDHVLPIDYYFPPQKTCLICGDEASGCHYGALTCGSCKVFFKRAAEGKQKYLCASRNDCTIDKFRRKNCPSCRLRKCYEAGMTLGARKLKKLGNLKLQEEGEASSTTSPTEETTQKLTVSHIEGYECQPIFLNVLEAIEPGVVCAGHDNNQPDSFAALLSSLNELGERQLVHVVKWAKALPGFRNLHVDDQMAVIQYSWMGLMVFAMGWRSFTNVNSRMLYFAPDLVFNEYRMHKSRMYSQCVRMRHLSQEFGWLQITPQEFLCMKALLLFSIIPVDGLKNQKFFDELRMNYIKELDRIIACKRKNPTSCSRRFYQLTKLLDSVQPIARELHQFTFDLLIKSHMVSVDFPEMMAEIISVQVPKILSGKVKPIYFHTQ
Conditions: from VCaP GRE2-luciferase IC50 and cLogP
Just the number, please, no unit attached.

Guide cases for Lipophilic Ligand Efficiency (LLE), answers given:
>  <Smiles string>
CSc1ccc(C(N)=O)cc1-c1ccc2cnccc2c1

>  <Study system>
androgen receptor (AR) (Homo sapiens, UniProt P10275)

>  <Lipophilic Ligand Efficiency (LLE)>
6.0

$$$$
>  <Smiles string>
CSc1ccc(C(N)=O)cc1-c1ccc2ocnc2c1

>  <Study system>
androgen receptor (AR) (Homo sapiens, UniProt P10275)

>  <Lipophilic Ligand Efficiency (LLE)>
4.6

$$$$
>  <Smiles string>
CSc1ccc(C(N)=O)cc1-c1ccccc1

>  <Study system>
androgen receptor (AR) (Homo sapiens, UniProt P10275)

>  <Lipophilic Ligand Efficiency (LLE)>
4.6

$$$$
>  <Smiles string>
Cn1ncc2cc(-c3cc(C(N)=O)ccc3O)ccc21

>  <Study system>
androgen receptor (AR) (Homo sapiens, UniProt P10275)

>  <Lipophilic Ligand Efficiency (LLE)>
6.1

$$$$
>  <Smiles string>
CSc1ccc(C(=O)N2CCCCC2)cc1-c1cncnc1

>  <Study system>
androgen receptor (AR) (Homo sapiens, UniProt P10275)

>  <Lipophilic Ligand Efficiency (LLE)>
6.8

$$$$

### Prompt Give the measured Lipophilic Ligand Efficiency (LLE) of `CSc1c(F)cc(C(N)=O)cc1-c1ccc2c(cnn2C)c1` .
### Response 7.3

### Prompt Give the measured Lipophilic Ligand Efficiency (LLE) of `CSc1ncc(C(N)=O)cc1-c1ccc2c(cnn2C)c1` .
### Response 6.2

### Prompt Give the measured Lipophilic Ligand Efficiency (LLE) of `CSc1ccc(C(N)=O)cc1-c1ccc2ncccc2c1` .
### Response 5.9

### Prompt Give the measured Lipophilic Ligand Efficiency (LLE) of `Cn1ncc2cc(-c3cc(C(N)=O)ccc3OC(F)(F)F)ccc21` .
### Response 4.6

### Prompt Give the measured Lipophilic Ligand Efficiency (LLE) of `CSc1ccc(C(N)=O)cc1-c1cncnc1` .
### Response 8.2

* * *

Target: androgen receptor (AR) (Homo sapiens, UniProt P10275)
Details: from VCaP GRE2-luciferase IC50 and cLogP
Property: Lipophilic Ligand Efficiency (LLE)
Just the number, please, no unit attached.

Guide cases for Lipophilic Ligand Efficiency (LLE), answers given:
>  <Compound>
Cn1ncc2cc(-c3cc(C(N)=O)ccc3NCc3ccccc3)ccc21 [Compound 52]

>  <Assay result>
6.2

$$$$
>  <Compound>
CSc1ccc(C(N)=O)cc1-c1ccc2c(ccn2C)c1 [Compound 17]

>  <Assay result>
7.0

$$$$
>  <Compound>
COc1ccc(-c2cc(C(N)=O)ccc2SC)cc1OC [Compound 28]

>  <Assay result>
4.8

$$$$

Then there is this compound:
### Prompt Give the measured Lipophilic Ligand Efficiency (LLE) of CSc1ccc(C(N)=O)cc1-c1ccc2cn[nH]c2c1 [Compound 14] .
### Response 7.1

* * *

Biological target: androgen receptor (AR) (Homo sapiens, UniProt P10275)
Settings: VCaP cells, 1 nM DHT
Property: activity in VCaP GRE2-luciferase assay (in words)

>  <Molecule>
CSc1cc(C(N)=O)cc(-c2ccc3c(cnn3C)c2)c1 [Compound 39]

>  <Assay result>
inactive

$$$$
>  <Molecule>
CCc1ccc(C(N)=O)cc1-c1ccc2c(cnn2C)c1 [Compound 42]

>  <Assay result>
loss of activity

$$$$
>  <Molecule>
CSc1ccc(C(N)=O)cc1-c1cccnc1 [Compound 22]

>  <Assay result>
loss of activity

$$$$
>  <Molecule>
CSc1ccc(C(N)=O)cc1-c1cc(O)cc(F)c1 [Compound 32]

>  <Assay result>
inactive

$$$$
>  <Molecule>
Cn1ncc2cc(-c3cc(C(N)=O)ccc3OCC3CC3)ccc21 [Compound 50]

>  <Assay result>
inactive

$$$$

### Prompt Give the measured activity in VCaP GRE2-luciferase assay (in words) of CSc1ccc(C(N)=O)cc1-c1cccc(O)c1F [Compound 31] .
### Response inactive

### Prompt Give the measured activity in VCaP GRE2-luciferase assay (in words) of Cc1ccc(C(N)=O)cc1-c1ccc2c(cnn2C)c1 [Compound 41] .
### Response loss of activity

### Prompt Give the measured activity in VCaP GRE2-luciferase assay (in words) of CSc1ccc(C(N)=O)cc1-c1ccccc1 [Compound 8] .
### Response inactive
